Where do these numbers come from? They come from ChEMBL document CHEMBL3885861.

# Species: Rattus norvegicus
# protocol_description: Open TG-GATES - Regimen: Daily Repeat
# Assay type: toxicity, organism-based, Sprague-Dawley
# Parameters: regimen Daily Repeat, gender Male, age 6 weeks
# condition: in vivo, po, 100 mg/kg, […], tissue Plasma, route gavage, dose level Low, time 7 day
recorded_endpoint: AST (IU/L)
Field format: number, assumed IU/L, no unit text.

Prompt: Entry under review: COC1=CC(=O)C[C@@H](C)[C@]12Oc1c(Cl)c(OC)cc(OC)c1C2=O . Reported AST?
Response: 62.2

Prompt: Now consider NC(N)=Nc1nc(CSCCC(N)=NS(N)(=O)=O)cs1 and answer again.
Response: 67

Prompt: Now consider COc1ccc2[nH]c([S+]([O-])Cc3ncc(C)c(OC)c3C)nc2c1 (stereo not given) and answer again.
Response: 65

Prompt: Now consider CCOC(=O)CCC(=O)O[C@H]1[C@H](O[C@@H]2[C@@H](C)[C@H](O[C@H]3C[C@@](C)(OC)[C@@H](O)[C@H](C)O3)[C@@H](C)C(=O)O[C@H](CC)[C@@](C)(O)[C@H](O)[C@@H](C)C(=O)[C@H](C)C[C@@]2(C)O)O[C@H](C)C[C@@H]1N(C)C [ERYTHROMYCIN ETHYLSUCCINATE] and answer again.
Response: 64.6

Prompt: Now consider CCOc1ccc(NC(=O)CC(C)O)cc1 (stereo not given) and answer again.
Response: 69.6
